System: MDA-MB-231 cells
assay protocol: MTT cell viability / proliferation assay
Format: cell-based, human
particulars: Homo sapiens, MDA-MB-231, 120 h
pIC50: −log10 of the molar value.
measured parameter: pIC50

> print(dat)
                             smiles  data.value
1  CCCCCCCCc1ccc(NC(=O)c2ccccc2)cc1        5.52

###

System: MDA-MB-231 cells
assay protocol: MTT cell viability / proliferation assay
Type: cell-based, human
particulars: Homo sapiens, MDA-MB-231, 72 h
measured parameter: IC50 (µM)

> print(dat)
                                  molecule  measurement.unit  data.value
1  CCCCCCCCc1ccc(NC(=O)c2ccccc2)cc1 [SK-F]                µM           7

###

target of assay: recombinant SK1 (Homo sapiens, UniProt Q9NYA1)
Sequence (Q9NYA1 whole entry): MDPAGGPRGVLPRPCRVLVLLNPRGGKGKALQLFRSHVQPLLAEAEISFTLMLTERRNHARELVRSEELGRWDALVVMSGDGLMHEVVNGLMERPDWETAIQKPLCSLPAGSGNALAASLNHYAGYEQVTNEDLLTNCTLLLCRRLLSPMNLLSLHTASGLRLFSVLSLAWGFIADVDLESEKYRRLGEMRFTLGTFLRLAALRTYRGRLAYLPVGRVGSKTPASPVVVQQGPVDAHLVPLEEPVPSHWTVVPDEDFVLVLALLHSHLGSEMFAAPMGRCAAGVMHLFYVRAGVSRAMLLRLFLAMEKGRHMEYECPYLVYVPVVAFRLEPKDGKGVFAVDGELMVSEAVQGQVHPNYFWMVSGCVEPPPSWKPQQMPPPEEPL
assay protocol: SK1 activity assay, cell-free (recombinant SK1 extract, radiolabelling)
Type: biochemical
particulars: recombinant SK1, increasing sphingosine, triton X-100, Lineweaver-Burk
measured parameter: Ki (nM)

> print(dat)
                             smiles                           target.of.assay  measurement.unit  data.value
1  CCCCCCCCc1ccc(NC(=O)c2ccccc2)cc1  recombinant SK1 (Homo sapiens, UniProt Q9NYA1)                nM         460
